Record set of MIC for target or system Trichoderm Sp. Madison P42.
# output: bare number, implied unit µg/mL

N#CC(Cl)CS(=O)(=O)c1cccs1 (stereo not shown) [Example 1] | 100
CCc1ccc(S(=O)(=O)CC(Cl)C#N)s1 (stereo not shown) [2(b)] | 500
Cc1ccc(S(=O)(=O)CC(Cl)C#N)s1 (stereo not shown) [2(a)] | 50

Trichoderm Sp. Madison P42 data for CCCCc1ccc(S(=O)(=O)CC(Cl)C#N)s1 (stereo not shown) [2(c)] ; its MIC: 500

----------
Record set of MIC for target or system C. pelliculosa.
# output: bare number, implied unit mg/L

C. pelliculosa data for Cc1ccc(S(=O)(=O)CC(Cl)C#N)s1 (stereo not shown) ; its MIC: 50

C. pelliculosa data for N#CC(Cl)CS(=O)(=O)c1cccs1 (stereo not shown) ; its MIC: 10

C. pelliculosa data for CCc1ccc(S(=O)(=O)CC(Cl)C#N)s1 (stereo not shown) ; its MIC: 100

C. pelliculosa data for CCCCc1ccc(S(=O)(=O)CC(Cl)C#N)s1 (stereo not shown) ; its MIC: 50

----------
Record set of MIC for target or system C albicans.
Field: value (include unit after the number)

See these solved cases before continuing.
CCc1ccc(S(=O)(=O)CC(Cl)C#N)s1 (stereo not shown) | 500 µg/mL
CCCCc1ccc(S(=O)(=O)CC(Cl)C#N)s1 (stereo not shown) | 50 µg/mL
N#CC(Cl)CS(=O)(=O)c1cccs1 (stereo not shown) | 10 µg/mL

Then there is this compound:
The reported value for Cc1ccc(S(=O)(=O)CC(Cl)C#N)s1 (stereo not shown) in terms of MIC is 50 µg/mL

----------
Record set of MIC for target or system P. pullulans.
# output: bare number, implied unit µg/mL

CCc1ccc(S(=O)(=O)CC(Cl)C#N)s1 (stereo not shown) [2(b)] | 500
N#CC(Cl)CS(=O)(=O)c1cccs1 (stereo not shown) [Example 1] | 10
Cc1ccc(S(=O)(=O)CC(Cl)C#N)s1 (stereo not shown) [2(a)] | 50

The reported value for CCCCc1ccc(S(=O)(=O)CC(Cl)C#N)s1 (stereo not shown) [2(c)] in terms of MIC is 50
